Data credit: paper PMC6792352

Listing of recorded CC50 at 24 h by entry.
Experiment: in vitro
Settings: rat, gh3-tre-luc cells, AC50 (uM) modified / 1000

Past entries and their recorded results:
compound: CC(COC(C)(C)C)OCCCO (stereo not drawn)
value-measured: > 90 µM

compound: CCCCOCCOC(=O)CCCCCCCCC(=O)OCCOCCCC [Bis(2-butoxyethyl) decanedioate]
value-measured: > 90 µM

compound: O=C(O)CCCC/C=C(\c1ccccc1)c1cccnc1
value-measured: > 50 µM

Tell me the measured CC50 at 24 h of CC(Cl)C(=O)O (stereo not drawn) , please. > 100 µM

Next entry: C[Si](C)(C)O[Si](C)(C)O[Si](C)(C)C > 90 µM

Next entry: CN(C)Cc1cc(CN(C)C)c(O)c(CN(C)C)c1 > 90 µM

Next entry: COC(=O)c1ccccc1C(=O)O [Monomethyl phthalate] > 90 µM

Next entry: CSC(=O)c1cccc2nnsc12 > 90 µM

Next entry: COC(C)(C)CCCC(C)C/C=C/C(C)=C/C(=O)OC(C)C (stereo not drawn) > 90 µM

###

Listing of recorded CC50 at 24 h by entry.
Test: in vitro
Settings: rat, gh3-tre-luc cells, AC50 (uM) modified / 1000

Tell me the measured CC50 at 24 h of O=C(c1cc2ccccc2o1)N1CCN(Cc2ccccc2)CC1 , please. > 50 µM

###

Experiment: in vitro
Details: rat, gh3-tre-luc cells, AC50 (uM) modified / 1000, Tox21_110001=Tox21_111979; viability, 1 nM T3 present, 24 h
observable: CC50 at 24 h (µM)
Kindly answer with a numeric value in µM, unit omitted.

Tell me the measured CC50 at 24 h of CCN(CC)CCOC(=O)C(C)(c1ccccc1)c1ccccc1 , please. 15.4

###

Assay: in vitro
Settings: rat, gh3-tre-luc cells, AC50 (uM) modified / 1000, Tox21_110001=Tox21_200623; viability, 1 nM T3 present, 24 h
observable: CC50 at 24 h

Tell me the measured CC50 at 24 h of CCCC(C)(COC(N)=O)COC(=O)NC(C)C (stereo not shown) , please. > 90 µM

###

Test: in vitro
Conditions: rat, gh3-tre-luc cells, AC50 (uM) modified / 1000
observable: CC50 at 24 h

Tell me the measured CC50 at 24 h of CCCCCCCCCCCCO , please. > 90 µM

###

System: GH3-TRE-Luc cell line
Conditions: read-out: AC50 (uM) modified / 1000; Tox21_110001=Tox21_201243; viability, 1 nM T3 present, 24 h
observable: CC50 (µM)
Kindly answer with a numeric value in µM, unit omitted.

What measured CC50 is associated with CC/C(=C(\c1ccccc1)c1ccc(OCCN(C)C)cc1)c1ccccc1 [Tamoxifen] on GH3-TRE-Luc cell line? 13.9

###

Experiment: in vitro
Details: rat, gh3-tre-luc cells, AC50 (uM) modified / 1000, Tox21_110001=Tox21_301598; viability, 1 nM T3 present, 24 h
observable: CC50 at 24 h

Tell me the measured CC50 at 24 h of CC(=O)/C=C/c1ccccc1 [Methyl trans-styryl ketone] , please. > 90 µM

###

Assay: in vitro
Conditions: rat, gh3-tre-luc cells, AC50 (uM) modified / 1000, Tox21_110001=Tox21_302891; viability, 1 nM T3 present, 24 h
observable: CC50 at 24 h (µM)
Kindly answer with a numeric value in µM, unit omitted.

Tell me the measured CC50 at 24 h of CCCCOCCOP(=O)(OCCOCCCC)OCCOCCCC [Tris(2-butoxyethyl) phosphate] , please. 58.5
